system: LNCaP; assay: Antilipogenic activity in human LNCAP cells assessed as reduction of cellular phospholipid level at 10 uM after 48 hrs by nile red staining-based fluorescence microscopic analysis relative to control; assay type: functional, cell-based
Calls of active or inactive are those of the source. The calls are words filed in the database; no cut-off is given here.
Labels: t (active), f (inactive)

MOLECULAR STRING | LABEL
CCCCCCCCCCCCCCOc1ccc(C(=O)O)o1 | f
O=C(Cc1ccc(O)c(Cl)c1)NCc1ccccc1F | t
O=C(Cc1ccc(O)c(Cl)c1)NCc1cccc(F)c1 | t
O=C(Cc1ccc(O)c(Cl)c1)NCc1ccc(F)cc1 | t

---

tested on: PC-3; experiment: Antilipogenic activity in human PC3 cells assessed as reduction of cellular neutral lipid level at 10 uM after 48 hrs by nile red staining-based fluorescence microscopic analysis relative to control; type: functional, cell-based
The source made the active and inactive calls. The rule behind the calls is not given here.
OBSERVATION TYPE: Activity

MOLECULAR STRING | TARGET OF ASSAY | OBSERVATION TYPE | VALUE REPORTED
CCCCCCCCCCCCCCOc1ccc(C(=O)O)o1 | PC-3 | Activity | Active
O=C(Cc1ccc(O)c(Cl)c1)NCc1ccccc1F | PC-3 | Activity | Active
O=C(Cc1ccc(O)c(Cl)c1)NCc1cccc(F)c1 | PC-3 | Activity | Active
O=C(Cc1ccc(O)c(Cl)c1)NCc1ccc(F)cc1 | PC-3 | Activity | Active
